Reported IC50 values, EGFR (Homo sapiens, UniProt P00533).

Previously resolved entries follow.
COCCOc1cc2ncnc(Nc3ccc(F)c(Cl)c3)c2cc1NC(=O)C=C1CCN(CCOC)CC1 [Compound 8]	0.8 nM
COCCOc1cc2ncnc(Nc3ccc(F)c(Cl)c3)c2cc1NC(=O)C=C1CCN(CCOC)CC1.Cl.Cl [Compound 2, dihydrochloride]	0.5 nM
COCCOc1cc2ncnc(Nc3ccc(F)c(Cl)c3)c2cc1NC(=O)C=C1CCN(CCOC)CC1 [Compound 10, dimaleate]	0.3 nM

Recall and state the measured IC50 for "COCCOc1cc2ncnc(Nc3ccc(F)c(Cl)c3)c2cc1NC(=O)C=C1CCN(CCOC)CC1.CS(=O)(=O)O" . 0.4 nM

* * *

# test-summary: Bioavailability assay, Experiment III (free base)
# Type: in vivo
# test-settings: male, rat, plasma; Wistar rats, 20 mg/kg tail intravenous injection, preformulation
outcome-measure: Cmax (ng/mL)
The figure you give is taken to be in ng/mL; do not add the unit.

Recall and state the measured Cmax for "COCCOc1cc2ncnc(Nc3ccc(F)c(Cl)c3)c2cc1NC(=O)C=C1CCN(CCOC)CC1" . 13200

* * *

# test-summary: Bioavailability assay, Experiment III (free base)
# Type: in vivo
# test-settings: male, rat, plasma, po; Wistar rats, 20 mg/kg intragastric gavage, preformulation; read-out: Vz/F
outcome-measure: Vd/F (L/kg)
The figure you give is taken to be in L/kg; do not add the unit.

Recall and state the measured Vd/F for COCCOc1cc2ncnc(Nc3ccc(F)c(Cl)c3)c2cc1NC(=O)C=C1CCN(CCOC)CC1 [Compound 1] . 39.2

* * *

# test-summary: Bioavailability assay in rats, Experiment I (dihydrochloride)
# Assay type: in vivo
# test-settings: male, rat, plasma; Wistar rats, 20 mg/kg iv, 1 h; read-out: Average Plasma Drug Concentration
outcome-measure: concentration at 1 h

Recall and state the measured concentration at 1 h for COCCOc1cc2ncnc(Nc3ccc(F)c(Cl)c3)c2cc1NC(=O)C=C1CCN(CCOC)CC1.Cl.Cl [Compound 2, dihydrochloride] . 1720 ng/mL

* * *

# test-summary: Bioavailability assay in rats, Experiment II (dihydrobromide)
# Format: in vivo
# test-settings: both sexes, rat, plasma; Wistar rats, 20 mg/kg tail intravenous injection
outcome-measure: AUC(0-t) (µg·h/mL)
The figure you give is taken to be in µg·h/mL; do not add the unit.

Recall and state the measured AUC(0-t) for "Br.Br.COCCOc1cc2ncnc(Nc3ccc(F)c(Cl)c3)c2cc1NC(=O)C=C1CCN(CCOC)CC1" . 12.7

* * *

# test-summary: Bioavailability assay in rats, Experiment I (dihydrochloride)
# Assay type: in vivo
# test-settings: male, rat, plasma, oral; Wistar rats, 20 mg/kg ig, 8 h; read-out: Average Plasma Drug Concentration
outcome-measure: concentration at 8 h (ng/mL)
The figure you give is taken to be in ng/mL; do not add the unit.

Recall and state the measured concentration at 8 h for COCCOc1cc2ncnc(Nc3ccc(F)c(Cl)c3)c2cc1NC(=O)C=C1CCN(CCOC)CC1.Cl.Cl [Compound 2, dihydrochloride] . 495

* * *

# test-summary: Bioavailability assay, Experiment III (free base)
# Assay type: in vivo
# test-settings: male, rat, plasma; Wistar rats, 20 mg/kg tail intravenous injection, preformulation
outcome-measure: AUC(0-t) (ng·h/mL)
The figure you give is taken to be in ng·h/mL; do not add the unit.

Recall and state the measured AUC(0-t) for "COCCOc1cc2ncnc(Nc3ccc(F)c(Cl)c3)c2cc1NC(=O)C=C1CCN(CCOC)CC1" . 11800
